system: CD2F1 mice, L1210 leukemia ip, survival T/C; experiment: NCI In Vivo Anticancer Drug Screen. Data for tumor model L1210 Leukemia (intraperitoneal) in CD2F1 (CDF1) mice; settings: endpoint: mean survival time; dose: 100.0 mg/kg/injection; schedule: Q04DX003 (ip); vehicle: saline with Tween-80; higher = longer survival
Toxic doses and inconclusive results are not listed.

{"columns": ["structure.notation", "T/C"],
 "data": [
  ["O=C(c1ccc(Cl)cc1)c1no[n+]([O-])c1C(=O)c1ccc(Cl)cc1", "107 % of control"],
  ["CCNCc1ccc(OC)cc1", "93 % of control"],
  ["O=C(Oc1ccccc1Cl)c1ccccc1", "105 % of control"],
  ["Nc1cccc2cnccc12", "91 % of control"],
  ["CCOC(=O)/C(=C/c1ccc(OCc2ccccc2)cc1)P(=O)(OCC)OCC", "98 % of control"],
  ["c1ccc(CSC2=NCCS2)cc1", "108 % of control"],
  ["COC(=O)C=P(c1ccccc1)(c1ccccc1)c1ccccc1", "97 % of control"]
]}

----------
system: CD2F1 mice, L1210 leukemia ip, survival T/C; assay: NCI In Vivo Anticancer Drug Screen. Data for tumor model L1210 Leukemia (intraperitoneal) in CD2F1 (CDF1) mice; conditions: endpoint: mean survival time; dose: 12.5 mg/kg/injection; schedule: Q01DX009 (ip); vehicle: water; higher = longer survival
Inconclusive results and toxic doses are left out.
readout.kind: T/C

{"columns": ["compound", "measured.target", "readout.kind", "reading"],
 "data": [
  ["N#Cc1cccc(CN2CCCNCC2)c1", "CD2F1 mice, L1210 leukemia ip, survival T/C", "T/C", "98 % of control"],
  ["COc1ccc(C2=NC(C)Cc3cc(OC)c(OC)cc32)cc1OC (centres undefined)", "CD2F1 mice, L1210 leukemia ip, survival T/C", "T/C", "96 % of control"],
  ["CC(=O)C1CC(=O)c2c(O)ccc(O)c2C1 (centres undefined)", "CD2F1 mice, L1210 leukemia ip, survival T/C", "T/C", "95 % of control"],
  ["NC(=O)CC(N)C(=O)O.[Cl-].[Cl-].[Cl-].[Cl-].[Pt+2] (centres undefined)", "CD2F1 mice, L1210 leukemia ip, survival T/C", "T/C", "101 % of control"]
]}

----------
system: CD2F1 mice, L1210 leukemia ip, survival T/C; assay: NCI In Vivo Anticancer Drug Screen. Data for tumor model L1210 Leukemia (intraperitoneal) in CD2F1 (CDF1) mice; conditions: endpoint: mean survival time; dose: 100.0 mg/kg/injection; schedule: Q01DX009 (ip); vehicle: saline sonified; higher = longer survival
Toxic doses and inconclusive results are not listed.
Attribute: T/C

{"columns": ["molecule", "measured.target", "T/C"],
 "data": [
  ["CCOC(=O)C(=O)c1c[nH]c2ccccc12", "CD2F1 mice, L1210 leukemia ip, survival T/C", "89 % of control"],
  ["CC(=O)Nc1ccc(S(=O)(=O)N(CCO)CCO)cc1", "CD2F1 mice, L1210 leukemia ip, survival T/C", "100 % of control"],
  ["CC(N)(CC(=O)O)C(=O)O (centres undefined)", "CD2F1 mice, L1210 leukemia ip, survival T/C", "97 % of control"],
  ["Nc1nc(Nc2ccc(C(=O)O)cc2)n[nH]1", "CD2F1 mice, L1210 leukemia ip, survival T/C", "105 % of control"]
]}
